# System: carrageenan-induced inflammation of hind foot
# Assay Summary: Carrageenan-induced foot edema, mice
# Assay type: in vivo, CF1 male mice
# Study Conditions: mice, 8 mg/kg x 2
Experimental Readout: anti-inflammatory activity in mouse edema screen

[[record]]
compound = "CCCCCCCCCCCCCCCC[N+](C)(C)[BH2-]C(=O)OCC [Compound 19]"
result = "less active"

[[record]]
compound = "COC(=O)[BH2-][NH+](C)C [Compound 15]"
result = "less active"

[[record]]
compound = "COC(=O)[BH2-][N+](C)(C)C [Compound 16]"
result = "less active"


* * *

Each entry below carries its recorded Mice Tail Flick.
# System: tail flick response to heat
# Assay Summary: Hot plate tail flick screen
# Format: in vivo, CF1 male mice
# Study Conditions: 8 mg/kg I.P., hot plate, Table 2

[[record]]
compound = "COC(=O)[BH2-][NH+](C)C [Compound 15]"
experimental_readout = "Mice Tail Flick"
result = "147 % of control"

[[record]]
compound = "CCCCCCCCCCCCCCCC[N+](C)(C)[BH2-]C(=O)O [Compound 8]"
experimental_readout = "Mice Tail Flick"
result = "167 % of control"


Request: What value of measured Mice Tail Flick is listed for CN1CC[C@]23c4c5ccc(O)c4O[C@H]2[C@@H](O)C=C[C@H]3[C@H]1C5 [Morphine, morphine, reference compound] ?
Result: 213 % of control

Request: And then N#C[BH2-][P+](c1ccccc1)(c1ccccc1)c1ccccc1 [Compound 48] , what is it?
Result: 134 % of control

Request: And then C[N+](C)(C)[BH2-]C(=O)NO.Cl [Compound 77] , what is it?
Result: 139 % of control

* * *

# Target Entity: acid phosphatase
# Assay Summary: Acid phosphatase activity, mouse macrophages
# Study Conditions: Table 3; read-out: IC50 Acid Phosphatase, Mouse Macrophage
Experimental Readout: IC50 (µM)
Give a bare numeral; the unit µM is implied.

Solved cases (5 shown):
[[record]]
compound = "[BH3-][NH2+]C(C)(C)C"
units_label = "µM"
measured_number = 8.08

[[record]]
compound = "CC[N+]#C[BH2-][N+](C)(C)C.F[B-](F)(F)F"
units_label = "µM"
measured_number = 1.31

[[record]]
compound = "[BH3-][NH+]1CCOCC1"
units_label = "µM"
measured_number = 3.18

[[record]]
compound = "CCCCCCCCCCCCCCCC[N+](C)(C)[BH2-]C(=O)O"
units_label = "µM"
measured_number = 0.94

[[record]]
compound = "COC(=O)[BH2-][NH+](C)C"
units_label = "µM"
measured_number = 1.04


Request: What value of measured IC50 is listed for "C[N+](C)(C)[BH2-]C#N" ?
Result: 1.05

Request: And then "C[N+](C)(C)[BH2-]C(=O)NO.Cl" , what is it?
Result: 6.59

Request: And then "C[NH2+][BH2-]C(=O)NO.[H+].c1ccc([B-](c2ccccc2)(c2ccccc2)c2ccccc2)cc1" , what is it?
Result: 6.61

Request: And then "C[NH2+][BH2-]C(=O)O" , what is it?
Result: 0.9

Request: And then "O=C(O)[BH2-][NH+]1CCOCC1" , what is it?
Result: 0.16

Request: And then C[N+](C)(C)[BH2-]C(C#N)c1ccccc1 (centres unmarked) , what is it?
Result: 7.72

* * *

Each entry below carries its recorded IC50.
# Target Entity: acid phosphatase
# Assay Summary: Acid phosphatase activity, mouse macrophages
# Study Conditions: Table 3; read-out: IC50 Acid Phosphatase, Mouse Macrophage
Give a bare numeral; the unit nM is implied.

Solved cases (2 shown):
[[record]]
molecule = "COC(=O)[BH2-][NH+]1CCC(c2ccccc2)CC1 (stereo not drawn)"
measured_number = 2680

[[record]]
molecule = "CCOC(=O)[BH2-][NH+](C)C"
measured_number = 1120


Please turn your attention to the following entry.
Request: What value of measured IC50 is listed for "CCCCCCCCCCCCCCCCCC[N+](C)(C)[BH2-]C#N" ?
Result: 2680

* * *

# Tested on: carrageenan-induced inflammation of paw
# Assay Summary: Carrageenan-induced paw edema, rats;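 note: paw weight increase as percent of control rats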
# Assay type: in vivo, Sprague Dawley male rats
# Study Conditions: 8 mg/kg x 2, I.P., Table 2
Experimental Readout: Rat Inflammatory

[[record]]
cpd_smiles = "CC[N+]#C[BH2-][N+](C)(C)C.F[B-](F)(F)F"
target_entity = "carrageenan-induced inflammation of paw"
experimental_readout = "Rat Inflammatory"
result = "81 % of control"


Request: Observed Rat Inflammatory on carrageenan-induced inflammation of paw for "CCNC(=O)[BH2-][NH2+]C" , please.
Result: 41 % of control

Request: And then "CCCCCCCCCCCCCCCC[N+](C)(C)[BH2-]C(=O)O" , what is it?
Result: 59 % of control

Request: And then "CCCCCCCCCCCCCCCCCC[N+](C)(C)[BH2-]C(=O)O" , what is it?
Result: 72 % of control

Request: And then "C[NH+](C)[BH2-]C#N" , what is it?
Result: 61 % of control

Request: And then "COC(=O)[BH2-][N+](C)(C)C" , what is it?
Result: 71 % of control

Request: And then "C[N+](C)(C)[BH2-]C(=O)NO.[H+].c1ccc([B-](c2ccccc2)(c2ccccc2)c2ccccc2)cc1" , what is it?
Result: 60 % of control

Request: And then "C[NH2+][BH2-]C(=O)O" , what is it?
Result: 70 % of control

Request: And then "CCC[NH+]([BH2-]C(=O)O)CCC" , what is it?
Result: 55 % of control

Request: And then "C[N+](C)(C)[BH2-]C(=O)O" , what is it?
Result: 55 % of control

* * *

# Target Entity: acid phosphatase
# Assay Summary: Acid phosphatase activity, mouse macrophages
# Study Conditions: Table 3; read-out: IC50 Acid Phosphatase, Mouse Macrophage
Experimental Readout: pIC50
Value format note: pIC50 is -log10 of concentration (mol/L); just state the number.

[[record]]
compound = "C[NH+](C)[BH2-]C#N [Compound 33]"
measured_number = 5.95

[[record]]
compound = "CCCC[N+](CCCC)(CCCC)CCCC.CCNC(=O)[BH2-][P+]([O-])(OCC)OCC [Compound 57]"
measured_number = 5.35

[[record]]
compound = "CCCCCCCCCCCCCCCCCC[N+](C)(C)[BH2-]C(=O)O [Compound 9]"
measured_number = 5.27


Please turn your attention to the following entry.
Request: What value of measured pIC50 is listed for C[N+](C)(C)[BH2-]C(=O)NO.[H+].c1ccc([B-](c2ccccc2)(c2ccccc2)c2ccccc2)cc1 [Compound 76] ?
Result: 5.40
